- System: S. enterica typhimurium WT
- METHOD_NOTES: growth AUC normalised to DMSO control (median) (fraction of control); higher = less growth inhibition, active = hit call of the paper
- ASSAY_CONDITIONS: 20 µM
Where a name gives a salt, the structure may show the parent alone.
OBSERVABLE: growth AUC normalised to DMSO control
Provide a numeric answer; units are not to be included.

Would you please look over these solved cases?
COMPOUND	growth AUC normalised to DMSO control
C#C[C@]1(O)CC[C@H]2[C@@H]3CCC4=CC(=O)CC[C@@H]4[C@H]3CC[C@@]21CC [(D-) Norgestrel]	0.998
C[C@]12CC[C@H]3[C@@H](CCC4=CC(=O)CC[C@@]43C)[C@@H]1CC[C@@H]2C(=O)CO [Deoxycorticosterone]	1
CC(C)C[C@H](NC(=O)[C@@H](O)[C@H](N)Cc1ccccc1)C(=O)O [Ubenimex]	1

growth AUC normalised to DMSO control recorded for this compound, Cc1cn(-c2cc(NC(=O)c3ccc(C)c(Nc4nccc(-c5cccnc5)n4)c3)cc(C(F)(F)F)c2)cn1 [Nilotinib] , is 0.994

N[C@@H](Cc1ccc(O)c(O)c1)C(=O)O [Levodopa] has a reported growth AUC normalised to DMSO control of 0.973

The measured growth AUC normalised to DMSO control associated with O=C(NCCNCC(O)COc1ccc(O)cc1)N1CCOCC1 (centres undefined) [Xamoterol hemifumarate] reads 1.01

So for COc1ccc(CC(C)NCC(O)c2ccc(O)c(NC=O)c2)cc1 (centres undefined) [Formoterol fumarate] , the logged growth AUC normalised to DMSO control turned out to be 1.01

---

- Tested on: S. enterica typhimurium tolC KO
- METHOD_NOTES: growth AUC normalised to DMSO control (median) (fraction of control); higher = less growth inhibition, active = hit call of the paper
- ASSAY_CONDITIONS: 20 µM
Structures can show the parent of a compound that is named as a salt.
Respond with a class label; see active, inactive

Example entries and their recorded answers appear below.
COMPOUND	ASSIGNED_CLASS
Cc1ccc2c(c1)c1c3n2CCNC3CCC1 (configuration not stated) [Pirlindole mesylate]	inactive
CN1Cc2c(N)cccc2C(c2ccccc2)C1 (configuration not stated) [Nomifensine maleate]	inactive
Cc1cccc(C)c1OCC(C)N (configuration not stated) [Mexiletine hydrochloride]	inactive
CC(C)(C(=O)c1cccnc1)c1cccnc1 [Metyrapone]	inactive
Fc1ccc([C@@H]2CCNC[C@H]2COc2ccc3c(c2)OCO3)cc1 [Paroxetine hydrochloride]	inactive

In: Which result was noted for this compound in the test: N#Cc1ccc(Oc2ccc3c(c2)COB3O)cc1 [Crisaborole]
Out: inactive

In: Would you mind telling me which call this test gave CCN(CC)CCOc1ccc(C(=C(Cl)c2ccccc2)c2ccccc2)cc1 [(Z,E) Clomiphene citrate] ?
Out: inactive

In: Answer briefly: the call reported for CN1CCN(CCCN2c3ccccc3Sc3ccc(S(=O)(=O)N(C)C)cc32)CC1 [Thioproperazine dimesylate] in this assay.
Out: inactive

In: Check the results log: what was the call for CCC(=O)O[C@]1(C(=O)SCF)[C@H](C)C[C@H]2[C@@H]3C[C@H](F)C4=CC(=O)C=C[C@]4(C)[C@@]3(F)[C@@H](O)C[C@@]21C [Fluticasone propionate] ?
Out: inactive

In: // param item: O=C1CC2(CCCC2)CC(=O)N1CCCCN1CCN(c2ncccn2)CC1 [Buspirone hydrochloride] ; yields the recorded call
Out: inactive

---

- Tested on: P. vulgatus RND KO
- METHOD_NOTES: growth AUC normalised to DMSO control (median) (fraction of control); higher = less growth inhibition, active = hit call of the paper
- ASSAY_CONDITIONS: 20 µM
Counter-ions that a name gives are not always drawn.
Allowed answers: 1 (yes) (active), 0 (no) (inactive)

Some solved entries appear below for comparison.
COMPOUND	ASSIGNED_CLASS
COc1ccc(CC2c3cc(OC)c(OC)cc3CC[N+]2(C)CCC(=O)OCCCCCOC(=O)CC[N+]2(C)CCc3cc(OC)c(OC)cc3C2Cc2ccc(OC)c(OC)c2)cc1OC (stereo not given) [Atracurium besylate]	0 (no)
CCCCCCNC(=O)n1cc(F)c(=O)[nH]c1=O [Carmofur]	1 (yes)
CC1=C(C(=O)O)N2C(=O)[C@@H](NC(=O)[C@H](N)C3=CCC=CC3)[C@H]2SC1 [Cephradine monohydrate]	0 (no)
CCOC(=O)C1=C(COCCN)NC(C)=C(C(=O)OC)C1c1ccccc1Cl (stereo not given) [Amlodipine]	0 (no)

Kindly review the next compound as well.
In: Name the outcome recorded for CCCCNc1ccc(C(=O)OCCN(C)C)cc1 [Tetracaine hydrochloride] in the assay.
Out: 0 (no)

---

Each entry below carries its recorded growth AUC normalised to DMSO control.
- System: Vibrio cholerae
- METHOD_NOTES: growth AUC normalised to DMSO control (fraction of control); higher = less growth inhibition, active = hit call of the paper
- ASSAY_CONDITIONS: 20 µM
Where a name gives a salt, the structure may show the parent alone.
# answer = number (no unit)

COMPOUND	OBSERVABLE	OBSERVED_RESULT
CC1CNc2c(cccc2S(=O)(=O)N[C@@H](CCCNC(=N)N)C(=O)N2CC[C@@H](C)C[C@@H]2C(=O)O)C1 (stereo partly specified) [Argatroban]	growth AUC normalised to DMSO control	1
COc1cc(N)c(Cl)cc1C(=O)NC1CCN(Cc2ccccc2)CC1 [Clebopride maleate]	growth AUC normalised to DMSO control	0.995
C[C@@](Cc1ccc(O)c(O)c1)(NN)C(=O)O [Carbidopa]	growth AUC normalised to DMSO control	0.996

// recorded growth AUC normalised to DMSO control for c1ccc(-c2ccc(C(c3ccccc3)n3ccnc3)cc2)cc1 (stereo unspecified) [Bifonazole] : 1

Query Oc1ccc(OCc2ccccc2)cc1 [Monobenzone] yields growth AUC normalised to DMSO control of 0.982

The compound O=S(=O)(O)c1cc(O)ccc1O [Ethamsylate diethylammonium salt] showed growth AUC normalised to DMSO control equal to 0.999

For reference, reported growth AUC normalised to DMSO control for CN(C)/N=N/c1[nH]cnc1C(N)=O [Dacarbazine] stands at 0.994

Record CCN1CCC[C@H]1CNC(=O)c1c(O)c(Cl)cc(Cl)c1OC [Raclopride] . Reported growth AUC normalised to DMSO control: 0.985

---

- System: Vibrio cholerae
- METHOD_NOTES: growth AUC normalised to DMSO control (fraction of control); higher = less growth inhibition, active = hit call of the paper
- ASSAY_CONDITIONS: 20 µM
Counter-ions that a name gives are not always drawn.
Collected growth AUC normalised to DMSO control values appear next to each entry.
Answer as a number with no unit attached.

COMPOUND	OBSERVED_RESULT
COc1cc(C(=O)OCCCN2CCCN(CCCOC(=O)c3cc(OC)c(OC)c(OC)c3)CC2)cc(OC)c1OC [Dilazep dihydrochloride]	1.01
COCCc1ccc(OCC(O)CNC(C)C)cc1 (stereo not drawn) [Metoprolol-(+)-tartrate salt]	0.998
Cc1cc(/C=C/c2ccc3cc(N(C)C)ccc3[n+]2C)c(C)n1-c1ccccc1 [Pyrvinium pamoate]	0.865
Cc1cnc(NC(=O)C2=C(O)c3ccccc3S(=O)(=O)N2C)s1	0.837
C[C@H]1C[C@@H]2[C@H]([C@@H](O)C[C@@]3(C)[C@H]2CC[C@]3(O)C(=O)CO)[C@@]2(C)C=CC(=O)C=C12	0.997

The measured growth AUC normalised to DMSO control associated with COC(=O)[C@H]1[C@H]2C[C@@H]3c4[nH]c5cc(OC)ccc5c4CCN3C[C@H]2C[C@@H](OC(=O)c2cc(OC)c(OC)c(OC)c2)[C@@H]1OC reads 1.06

# compound CC(=O)N[C@@H](CS)C(=O)O ; its growth AUC normalised to DMSO control = 1.05

---

Measured growth AUC normalised to DMSO control, listed per entry.
- Tested on: Shigella flexneri
- METHOD_NOTES: growth AUC normalised to DMSO control (fraction of control); higher = less growth inhibition, active = hit call of the paper
- ASSAY_CONDITIONS: 20 µM
Where a name gives a salt, the structure may show the parent alone.
// return a plain number; no unit text

Example results:
COMPOUND	OBSERVABLE	OBSERVED_RESULT
Cc1cc(C(C)(C)C)cc(C)c1CC1=NCCN1 [Xylometazoline hydrochloride]	growth AUC normalised to DMSO control	0.999
CC(=O)OCC(=O)[C@@]12N=C(C)O[C@@H]1C[C@H]1[C@@H]3CCC4=CC(=O)C=C[C@]4(C)[C@H]3[C@@H](O)C[C@@]12C [Deflazacort]	growth AUC normalised to DMSO control	0.992

Note to self: growth AUC normalised to DMSO control of Nc1ncnc2c1ncn2C1OC(COP(=O)(O)O)C(O)C1O (centres undefined) [Adenosine 5'-monophosphate monohydrate] with Shigella flexneri was 0.986

Short answer on Shigella flexneri for CC(c1cc2ccccc2s1)N(O)C(N)=O (centres undefined) [Zileuton] , growth AUC normalised to DMSO control: 0.986
